measurement target: T1, cynomolgus monkey E-selectin extracellular domain with 10 His purification tail (cynomolgus monkey, UniProt P16581 22-554 (human entry))
T1 construct: also called cynomolgus E-selectin; truncated cynomolgus monkey E-selectin
T1 chain: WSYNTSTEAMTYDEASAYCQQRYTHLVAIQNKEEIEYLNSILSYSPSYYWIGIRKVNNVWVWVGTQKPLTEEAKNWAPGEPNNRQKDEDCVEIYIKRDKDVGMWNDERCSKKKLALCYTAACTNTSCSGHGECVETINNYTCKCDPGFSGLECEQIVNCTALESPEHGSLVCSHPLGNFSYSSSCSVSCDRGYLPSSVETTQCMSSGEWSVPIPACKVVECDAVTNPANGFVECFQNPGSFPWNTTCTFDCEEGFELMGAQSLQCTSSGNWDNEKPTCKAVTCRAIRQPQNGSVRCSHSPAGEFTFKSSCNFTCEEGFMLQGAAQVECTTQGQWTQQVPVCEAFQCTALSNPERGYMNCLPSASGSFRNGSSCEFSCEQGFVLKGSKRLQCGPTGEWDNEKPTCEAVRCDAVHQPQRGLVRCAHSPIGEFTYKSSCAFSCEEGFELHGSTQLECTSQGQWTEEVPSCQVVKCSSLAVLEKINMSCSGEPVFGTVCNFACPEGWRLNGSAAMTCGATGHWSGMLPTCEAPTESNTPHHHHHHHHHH
assay procedure: SPR, antibody captured, E-selectin analyte
koff values for the binders below.
Numbers only here, please. The scale is s⁻¹.

| binder | koff (s⁻¹) |
| --- | --- |
| anti-E-selectin antibody 0170 chimera (antibody, human IgG1, kappa, V domains shown, rat VH/VL on effector-null human IgG1 and human kappa) VH: EVQLQQSGAELGKPGTSVKLSCKVSGYSIRSTYMHWVNQRPGKGLEWVGRIDPANGNTIYAERFKNKATLTADTSSNTAYMQLSQLKSDDTAIYFCAVEILGIFDYWGQGVMVTVSS VL: DIQMTQSPSFLSASVGDRVTINCKASQNIDKYLDWYQQKLGEAPKLLMYNTNSLHTGIPSRFSGSGSGTDFTLTISSLQPEDVATYFCLQHNSGYTFGAGTKLELKR | 0.0564 |

Could you now look at the following binder, please?
Exercise: Report koff for anti-E-selectin antibody 0180 chimera (antibody, human IgG1, kappa, V domains shown, rat VH/VL on effector-null human IgG1 and human kappa) VH: EVQLQQSGAELGKPGTSVKLSCKVSGYKIRSSYMHWVNQRPGKGLEWIGRIDPANGNTIYGDKFKSKATLTSDTSSNTAYIQLSQLKSDDTAIYFCAIDIGTTFDYWGQGVMVTVSS VL: DIQMTQSPSFLSASVGDRVTINCKASQHINRYLNWYQQKLGEAPKLLIYDANNLQTGIPSRFSGSGSGTDFTLTISSLQPEDVATYFCLQHNSWPNTFGAGTKLELKR please.
Solution: 0.749
